Hello, the source for this data is ChEMBL document CHEMBL4265889, in case you need it.

# TARGET_DESC: UniProt P08684
# Sequence (P08684 whole entry): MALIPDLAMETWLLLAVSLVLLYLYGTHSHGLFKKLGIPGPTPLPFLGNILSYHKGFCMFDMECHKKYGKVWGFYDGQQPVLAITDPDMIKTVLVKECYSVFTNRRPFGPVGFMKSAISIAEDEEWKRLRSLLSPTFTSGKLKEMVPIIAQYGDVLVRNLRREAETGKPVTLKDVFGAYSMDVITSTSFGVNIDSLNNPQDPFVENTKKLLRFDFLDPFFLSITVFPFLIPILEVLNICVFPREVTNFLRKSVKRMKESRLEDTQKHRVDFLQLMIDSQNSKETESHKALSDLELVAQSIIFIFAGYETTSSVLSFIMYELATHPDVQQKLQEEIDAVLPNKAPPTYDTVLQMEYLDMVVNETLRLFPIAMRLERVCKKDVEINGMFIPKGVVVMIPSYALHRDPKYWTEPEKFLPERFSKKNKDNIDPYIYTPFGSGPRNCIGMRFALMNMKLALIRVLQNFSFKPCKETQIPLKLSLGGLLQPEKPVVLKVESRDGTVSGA
READOUT_KIND: IC50

{"STRUCTURE_SMILES": "CCC[C@@H](CCO)Nc1nc(N)nc2c1CN(C(=O)c1csc(C)n1)CC2", "TARGET_DESC": "UniProt P08684", "RESULT": "> 10 µM"}

###

# TARGET_DESC: Cytochrome P450 2C19 (Homo sapiens)
# Sequence (P33261 whole entry): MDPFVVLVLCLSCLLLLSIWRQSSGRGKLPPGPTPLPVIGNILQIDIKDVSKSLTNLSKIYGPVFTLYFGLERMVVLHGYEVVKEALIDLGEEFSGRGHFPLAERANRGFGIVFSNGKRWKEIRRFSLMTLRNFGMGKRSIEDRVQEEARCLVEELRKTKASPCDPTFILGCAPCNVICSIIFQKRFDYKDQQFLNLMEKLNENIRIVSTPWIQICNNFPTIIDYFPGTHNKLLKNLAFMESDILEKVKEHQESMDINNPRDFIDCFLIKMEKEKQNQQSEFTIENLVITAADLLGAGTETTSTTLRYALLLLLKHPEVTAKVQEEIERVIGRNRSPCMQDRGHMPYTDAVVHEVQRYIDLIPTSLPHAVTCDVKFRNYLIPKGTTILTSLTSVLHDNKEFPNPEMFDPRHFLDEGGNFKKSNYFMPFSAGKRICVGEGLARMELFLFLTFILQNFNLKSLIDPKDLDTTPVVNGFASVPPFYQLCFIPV
# ASSAY_DETAILS: Inhibition of CYP2C19 (unknown origin)
# Type: ADME
pIC50: −log10 of the molar value.

{"STRUCTURE_SMILES": "CCC[C@@H](CCO)Nc1nc(N)nc2c1CN(C(=O)c1csc(C)n1)CC2", "TARGET_DESC": "Cytochrome P450 2C19 (Homo sapiens)", "pIC50": "< 5.00"}

###

# ASSAY_DETAILS: Drug metabolism in mouse liver microsomes at 1 uM after 15 mins
# Format: ADME, microsome
# EXPERIMENTAL_CONDITIONS: read-out: Drug metabolism

{"STRUCTURE_SMILES": "CCCC[C@@H](CCO)Nc1nc(N)nc2c1CN(C(=O)c1csc(C)n1)CC2", "metabolised at 0.25 h, 1 µM [%]": 71}
{"STRUCTURE_SMILES": "CCCCNc1nc(N)nc2c1CN(C(=O)c1csc(C)n1)CC2", "metabolised at 0.25 h, 1 µM [%]": 88}
{"STRUCTURE_SMILES": "CCC[C@@H](CCO)Nc1nc(N)nc2c1CN(C(=O)c1cccs1)CC2", "metabolised at 0.25 h, 1 µM [%]": 73}
{"STRUCTURE_SMILES": "CCCCNc1nc(N)nc2c1CN(C(=O)c1cccs1)CC2", "metabolised at 0.25 h, 1 µM [%]": 99}
{"STRUCTURE_SMILES": "CCCC[C@@H](CCO)Nc1nc(N)nc2c1CN(C(=O)c1cccs1)CC2", "metabolised at 0.25 h, 1 µM [%]": 90}
{"STRUCTURE_SMILES": "CCC[C@@H](CCO)Nc1nc(N)nc2c1CN(C(=O)c1csc(C)n1)CC2", "metabolised at 0.25 h, 1 µM [%]": 33}

###

# TARGET_DESC: UniProt:Q9NR97
# Sequence (Q9NR97 whole entry): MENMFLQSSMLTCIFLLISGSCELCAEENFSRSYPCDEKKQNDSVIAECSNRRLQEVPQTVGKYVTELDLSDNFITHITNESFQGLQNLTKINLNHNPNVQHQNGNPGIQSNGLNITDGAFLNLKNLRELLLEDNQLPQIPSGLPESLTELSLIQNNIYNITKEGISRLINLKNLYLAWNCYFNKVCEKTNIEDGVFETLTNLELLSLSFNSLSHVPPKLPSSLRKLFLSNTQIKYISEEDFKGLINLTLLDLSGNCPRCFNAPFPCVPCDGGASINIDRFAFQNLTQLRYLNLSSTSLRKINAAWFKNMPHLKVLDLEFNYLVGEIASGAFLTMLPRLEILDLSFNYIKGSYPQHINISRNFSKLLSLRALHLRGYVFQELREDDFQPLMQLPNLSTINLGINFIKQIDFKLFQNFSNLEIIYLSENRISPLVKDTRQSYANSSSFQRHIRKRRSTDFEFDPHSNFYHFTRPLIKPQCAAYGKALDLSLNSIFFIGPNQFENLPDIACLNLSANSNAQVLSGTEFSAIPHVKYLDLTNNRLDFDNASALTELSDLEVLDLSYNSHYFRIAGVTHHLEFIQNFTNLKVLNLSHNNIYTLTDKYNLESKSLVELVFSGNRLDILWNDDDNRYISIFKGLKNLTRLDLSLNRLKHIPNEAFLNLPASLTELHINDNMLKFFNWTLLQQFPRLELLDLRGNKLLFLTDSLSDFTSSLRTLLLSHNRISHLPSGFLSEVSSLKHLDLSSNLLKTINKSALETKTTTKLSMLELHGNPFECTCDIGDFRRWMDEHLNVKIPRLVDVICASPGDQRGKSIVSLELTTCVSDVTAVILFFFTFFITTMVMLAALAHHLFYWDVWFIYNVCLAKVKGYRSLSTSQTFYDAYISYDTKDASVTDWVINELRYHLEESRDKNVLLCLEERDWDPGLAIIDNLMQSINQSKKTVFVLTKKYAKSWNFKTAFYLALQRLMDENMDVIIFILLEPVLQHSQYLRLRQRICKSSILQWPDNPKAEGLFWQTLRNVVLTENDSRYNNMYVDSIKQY
# ASSAY_DETAILS: Agonist activity at human TLR8 expressed in HEK293 cells after 6 hrs by NFkappaB-luciferase reporter gene assay
# Assay type: cell-based
// assign criterion met if MEC falls strictly below 0.3 µM, else criterion not met (ties count as criterion not met)

{"STRUCTURE_SMILES": "CCCCNc1nc(N)nc2c1CN(Cc1ccc(C(C)(C)C)cc1)CC2", "CLASS_LABEL": "criterion not met"}
{"STRUCTURE_SMILES": "CCC[C@@H](CCO)Nc1nc(N)nc2c1CN(C(=O)c1csc(C)n1)CC2", "CLASS_LABEL": "criterion not met"}
{"STRUCTURE_SMILES": "CCCCNc1nc(N)nc2c1CN(C(=O)c1cccs1)CC2", "CLASS_LABEL": "criterion not met"}
{"STRUCTURE_SMILES": "CCCCNc1nc(N)nc2c1CN(Cc1ccncc1)CC2", "CLASS_LABEL": "criterion met"}
{"STRUCTURE_SMILES": "CCC[C@@H](CCO)Nc1nc(N)nc2c1CN(C(=O)c1cccs1)CC2", "CLASS_LABEL": "criterion not met"}
{"STRUCTURE_SMILES": "CCCCNc1nc(N)nc2c1CN(C(=O)c1scnc1C)CC2", "CLASS_LABEL": "criterion not met"}
{"STRUCTURE_SMILES": "CCCCNc1nc(N)nc2c1CN(C(=O)CC)CC2", "CLASS_LABEL": "criterion not met"}
{"STRUCTURE_SMILES": "CCCCNc1nc(N)nc2c1CN(CCc1ccccc1)CC2", "CLASS_LABEL": "criterion met"}
{"STRUCTURE_SMILES": "CCCCNc1nc(N)nc2c1CN(Cc1c(Cl)cccc1Cl)CC2", "CLASS_LABEL": "criterion met"}
{"STRUCTURE_SMILES": "CCCCNc1nc(N)nc2c1CN(C(=O)c1ccccc1)CC2", "CLASS_LABEL": "criterion not met"}
{"STRUCTURE_SMILES": "CCCCNc1nc(N)nc2c1CN(C(=O)c1cnc(N)s1)CC2", "CLASS_LABEL": "criterion not met"}
{"STRUCTURE_SMILES": "CCCCNc1nc(N)nc2c1CN(C(=O)c1cocn1)CC2", "CLASS_LABEL": "criterion met"}
{"STRUCTURE_SMILES": "CCCCNc1nc(N)nc2c1CN(C(=O)c1csc(C)n1)CC2", "CLASS_LABEL": "criterion not met"}
{"STRUCTURE_SMILES": "CCCCNc1nc(N)nc2c1CN(Cc1ccc(OC(F)(F)F)cc1)CC2", "CLASS_LABEL": "criterion met"}
{"STRUCTURE_SMILES": "CCCCNc1nc(N)nc2c1CN(Cc1ccccc1)CC2", "CLASS_LABEL": "criterion met"}
{"STRUCTURE_SMILES": "CCCCNc1nc(N)nc2c1CN(C(=O)c1cc(C)on1)CC2", "CLASS_LABEL": "criterion not met"}
{"STRUCTURE_SMILES": "CCCCNc1nc(N)nc2c1CN(C(C)=O)CC2", "CLASS_LABEL": "criterion not met"}
{"STRUCTURE_SMILES": "CCCCNc1nc(N)nc2c1CCN(CCc1ccccc1)C2", "CLASS_LABEL": "criterion met"}
{"STRUCTURE_SMILES": "CCCCNc1nc(N)nc2c1CCNC2", "CLASS_LABEL": "criterion not met"}
{"STRUCTURE_SMILES": "CCCCNc1nc(N)nc2c1CN(Cc1ccc(C(F)(F)F)cc1)CC2", "CLASS_LABEL": "criterion met"}
{"STRUCTURE_SMILES": "CCCCNc1nc(N)nc2c1CCN(C(C)=O)C2", "CLASS_LABEL": "criterion not met"}
{"STRUCTURE_SMILES": "CCCCNc1nc(N)nc2c1CN(C(=O)c1cnccn1)CC2", "CLASS_LABEL": "criterion not met"}
{"STRUCTURE_SMILES": "CCCCNc1nc(N)nc2c1CN(C(=O)C(C)C)CC2", "CLASS_LABEL": "criterion not met"}
{"STRUCTURE_SMILES": "CCCCNc1nc(N)nc2c1CCN(C(=O)c1ccccc1)C2", "CLASS_LABEL": "criterion not met"}
